The values you see were collected from the Human Domainome abundance scans (Beltran et al. 2025).

B1: Double-stranded RNA-binding protein Staufen homolog 1, residues 183 to 249; numbered along this chain, O95793 (parent)
chain: KSEISQVFEIALKRNLPVNFEVARESGPPHMKNFVTKVSVGEFVGEGEGKSKKISKKNAAIAVLEEL

# Variants of: B1
# TEST DESCRIPTION: abundance fitness (aPCA) (normalised: wild type 0, dead -1); higher = more abundant; growth selection in yeast, the domain comes from the species named
# PARTICULARS: Homo sapiens
OBSERVABLE: abundance fitness
Format: numeric value only, no unit, no commentary.

The following variants have reported results that may help.
{"MUTATION LIST": "E3V", "abundance fitness": -0.022}
{"MUTATION LIST": "F8S", "abundance fitness": -0.394}
{"MUTATION LIST": "F20W", "abundance fitness": 0.036}
{"MUTATION LIST": "N33V", "abundance fitness": -0.115}
{"MUTATION LIST": "E42P", "abundance fitness": 0.053}

Query: Item under review: G27T . Reported abundance fitness?
Reply: -0.309

Query: Item under review: V7T . Reported abundance fitness?
Reply: -0.717

Query: Item under review: N15C . Reported abundance fitness?
Reply: -0.325
